assay info: collision cross section of modified peptide (TIMS, N2, iRT-aligned); higher = larger / more extended gas-phase ion
assay conditions: charge state: 2; modification: HexNAc (ST)
Attribute: collision cross section
Reply with just the number (in Å²).

{"columns": ["seq text", "collision cross section, Å²"],
 "data": [
  ["MTLSVLSR [_MTLS(HexNAc (ST))VLSR_]", 352.44],
  ["YIDNQVVSTKGER [_YIDNQVVST(HexNAc (ST))KGER_]", 428.63],
  ["SGYSSPGSPGTPGSR [_SGYSSPGSPGTPGS(HexNAc (ST))R_]", 394.87],
  ["QGNAVTLGDYYQGR [_QGNAVT(HexNAc (ST))LGDYYQGR_]", 432.99],
  ["IPAASAAAMNLASAR [_IPAASAAAMNLAS(HexNAc (ST))AR_]", 422.38]
]}

**Query** Recorded collision cross section for DVFISAAER [_DVFIS(HexNAc (ST))AAER_] , please?
**Result** 363.87

**Query** Request the reported collision cross section associated with GQDSTIAASEQQVAAR [_GQDS(HexNAc (ST))TIAASEQQVAAR_]
**Result** 438.46

**Query** State the recorded collision cross section for this entry: SAGSVESPSVSSTHR [_SAGSVESPSVS(HexNAc (ST))STHR_]
**Result** 412.88

**Query** What does the record list as collision cross section for DFSLTSSSQTPGATK [_DFS(HexNAc (ST))LTSSSQTPGATK_] ?
**Result** 426.98

**Query** Record request: collision cross section value, item EEKPAVTAAPK [_EEKPAVT(HexNAc (ST))AAPK_]
**Result** 383.27

**Query** May I ask what collision cross section has been recorded for ITESVAETAQTIK [_ITESVAET(HexNAc (ST))AQTIK_] ?
**Result** 422.03

---

assay info: collision cross section of modified peptide (TIMS, N2, iRT-aligned); higher = larger / more extended gas-phase ion
assay conditions: charge state: 2; modification: Phospho (Y)
parameter: collision cross section (Å²)
Form entry: value (Å²) — number only.

Record excerpt, results attached:
{"columns": ["seq text", "units", "quantitative result"],
 "data": [
  ["LYDIDVAK [_LY(Phospho (Y))DIDVAK_]", "Å²", 363.27],
  ["LGGDLGTYVINK [_LGGDLGTY(Phospho (Y))VINK_]", "Å²", 375.25],
  ["IYHPNVDK [_IY(Phospho (Y))HPNVDK_]", "Å²", 353.97],
  ["LGPNDQYK [_LGPNDQY(Phospho (Y))K_]", "Å²", 336.82],
  ["LDLSSLAYSGK [_LDLSSLAY(Phospho (Y))SGK_]", "Å²", 374.73],
  ["AQSYAQQLGR [_AQSY(Phospho (Y))AQQLGR_]", "Å²", 354.7],
  ["VIVGGSSEYK [_VIVGGSSEY(Phospho (Y))K_]", "Å²", 358.71],
  ["AYPLADAHLTK [_AY(Phospho (Y))PLADAHLTK_]", "Å²", 380.31],
  ["YVGESEANIR [_Y(Phospho (Y))VGESEANIR_]", "Å²", 370.09],
  ["CSVLAAANPVYGR [_CSVLAAANPVY(Phospho (Y))GR_]", "Å²", 407.91]
]}

**Query** Sample HGVYNPNK [_HGVY(Phospho (Y))NPNK_] — what was its collision cross section?
**Result** 346.37

**Query** GET /values?readout=collision cross section&item= LSSETYSQAK [_LSSETY(Phospho (Y))SQAK_]
**Result** 357.2

---

assay info: collision cross section of modified peptide (TIMS, N2, iRT-aligned); higher = larger / more extended gas-phase ion
assay conditions: charge state: 2; modification: hydroxyisobutyryl
Returns one of Met or Not met; Met when collision cross section is >= 400 Å².

// known answers, use as guide
{"columns": ["seq text", "label class"],
 "data": [
  ["GFALVGVGSEASSKK [_GFALVGVGSEASSK(hydroxyisobutyryl)K_]", "Met"],
  ["SPDEAYAIAKK [_SPDEAYAIAK(hydroxyisobutyryl)K_]", "Not met"],
  ["DESFLGKLGGTLAR [_DESFLGK(hydroxyisobutyryl)LGGTLAR_]", "Met"],
  ["STGLELETPSLVPVKK [_STGLELETPSLVPVK(hydroxyisobutyryl)K_]", "Met"],
  ["SEASSEFAKK [_SEASSEFAK(hydroxyisobutyryl)K_]", "Not met"]
]}

**Query** Please indicate if the recorded collision cross section for ILDLKTGTVK [_ILDLK(hydroxyisobutyryl)TGTVK_] meets or exceeds 400 Å².
**Result** Not met

---

assay info: collision cross section of modified peptide (TIMS, N2, iRT-aligned); higher = larger / more extended gas-phase ion
assay conditions: charge state: 2; modification: Formyl
Measured collision cross section by item
Expressed in Å², but write only the number.

**Query** Which collision cross section is listed for AAINQKLIETGER [_AAINQK(Formyl)LIETGER_] ?
**Result** 399.86

**Query** Recorded collision cross section for LQEKVESAQSEQK [_LQEK(Formyl)VESAQSEQK_] , please?
**Result** 410.52

---

In this section, each of the sequences is paired with its reported collision cross section.
assay info: collision cross section of modified peptide (TIMS, N2, iRT-aligned); higher = larger / more extended gas-phase ion
assay conditions: charge state: 3; modification: Citrullination (R)
Give the number; Å² is assumed, so skip it.

Previously resolved entries follow.
{"columns": ["seq text", "parameter", "quantitative result"],
 "data": [
  ["AVSILPLLGHGVPRLPPGR [_AVSILPLLGHGVPR(Citrullination (R))LPPGR_]", "collision cross section", 569.33],
  ["SGGGYGGDRGGGYGGDR [_SGGGYGGDR(Citrullination (R))GGGYGGDR_]", "collision cross section", 470.6],
  ["RFGGPVHHQAQR [_R(Citrullination (R))FGGPVHHQAQR_]", "collision cross section", 477.19]
]}

**Query** Could you share which collision cross section value was measured for VLATQPGPGRGR [_VLATQPGPGR(Citrullination (R))GR_] ?
**Result** 447.25

**Query** Using the record for PRGVISTPVIR [_PR(Citrullination (R))GVISTPVIR_] , report its collision cross section.
**Result** 478.04

**Query** Endpoint output: collision cross section of LLALSGPGGGRGR [_LLALSGPGGGR(Citrullination (R))GR_] . Value?
**Result** 440.81

**Query** So what does the record say about collision cross section for VTRYPILGIPQAHR [_VTR(Citrullination (R))YPILGIPQAHR_] ?
**Result** 520.51

**Query** Given the sequence GGGFGAHGRGR [_GGGFGAHGR(Citrullination (R))GR_] , what is its reported collision cross section?
**Result** 412.59

---

assay info: collision cross section of unmodified peptide (TIMS, N2, iRT-aligned); higher = larger / more extended gas-phase ion
assay conditions: charge state: 3
parameter: collision cross section (Å²)
Express your answer in Å², writing the number without its unit.

# example entries with known answers
{"columns": ["seq text", "units", "collision cross section"],
 "data": [
  ["VGLQVVAVKAPGFGDNR", "Å²", 487.54],
  ["GRGAPPPPPSR", "Å²", 436.88],
  ["NLVTGDHIPTPQDLPQR", "Å²", 475.9],
  ["IISSIEQKEENK", "Å²", 479.1],
  ["GGFQNRGGGSGGGGNYR", "Å²", 474.43]
]}

**Query** Look up collision cross section: YSSSSIPEPFGSRGSPR
**Result** 521.94

**Query** Would you kindly share the measured collision cross section for ITLSKHQNVQLPR ?
**Result** 515.94

**Query** Please look up its collision cross section: VNIGQGSHPQKVK
**Result** 469.44

**Query** Return reported collision cross section; argument: RLPTTGYLVYR
**Result** 475.19

**Query** // query collision cross section value for entry TPSSFRQPFTPTSR
**Result** 486.75

**Query** Quick one: collision cross section for GFLQPPPLRQPR ?
**Result** 451.27

**Query** Quick one: collision cross section for YTAILNQIPSHSSSIR ?
**Result** 510.98

**Query** Endpoint output: collision cross section of TTEETSKPK . Value?
**Result** 430.05

**Query** What value of collision cross section has been recorded for this entry: GFCFITYTDEEPVKK
**Result** 509.46

**Query** Requested read-out: collision cross section. Entry: GPKGQQGEPGPK
**Result** 451.77

**Query** What measured collision cross section goes with LTEKELAEAASK ?
**Result** 479.05

The reported measurements were obtained from the supplement of paper PMC10598134.
